- experimental-system: human trace amine-associated receptor 1 (hTAAR1, hTA1) (Homo sapiens, UniProt Q96RJ0)
- Sequence (Q96RJ0 whole entry): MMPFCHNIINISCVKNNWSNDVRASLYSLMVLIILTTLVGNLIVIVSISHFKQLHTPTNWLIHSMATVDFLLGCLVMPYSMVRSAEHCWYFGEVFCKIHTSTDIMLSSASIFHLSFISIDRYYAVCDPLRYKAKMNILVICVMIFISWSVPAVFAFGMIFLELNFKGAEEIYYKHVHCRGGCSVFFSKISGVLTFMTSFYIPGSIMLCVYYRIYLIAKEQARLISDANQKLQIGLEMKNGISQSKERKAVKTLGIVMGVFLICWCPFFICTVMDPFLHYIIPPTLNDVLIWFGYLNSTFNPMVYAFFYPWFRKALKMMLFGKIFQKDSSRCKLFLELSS
- assay-remarks: GloSensor cAMP accumulation, hTA1-transfected HEK293T cells
- Assay type: cell-based
The reader will find reported EC50 values listed item by item below.

substance-smiles	reported-metric	observed-value
Cc1c(F)cccc1[C@H]1COC(N)=N1	EC50	1.48 nM

Now consider the entry below.
For the molecule shown here, "NCCc1ccc(O)cc1" , give the reported EC50. 6.38 ± 0.04 pEC50
